test: chemical genetic growth profiling, strain panel (AID 1159580);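 further: tested at 20 µM; growth read once vehicle control cultures reached saturation at 30 °C; 1 = growth at the plate median or of vehicle wells; lower values mean less growth of the strain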; settings: S. cerevisiae deletion strains, growth OD, locus YIR030C, strain dcg1, stronger effect = lower value
The whole screen tested about 5,500 compounds, of which about 2,000 (36%) were called active. About 18% were inconclusive and are not listed. This is one part of the list.
Listed below: normalized growth values for each entry.
Answer using only a numeral; do not append any unit.

[[record]]
compound = "CC(C)CC1NC(=O)CNC1=O (centres undefined)"
result_type = "normalized growth"
data_value = 0.995

[[record]]
compound = "O=C(OCc1ccccc1)c1ccccc1"
result_type = "normalized growth"
data_value = 0.972

[[record]]
compound = "CC(=O)Oc1cccc(O)c1"
result_type = "normalized growth"
data_value = 1.01

[[record]]
compound = "CN(C)CCCN1c2ccccc2Sc2ccc(C(F)(F)F)cc21"
result_type = "normalized growth"
data_value = 0.974

[[record]]
compound = "CCCN(CCC)S(=O)(=O)c1ccc(C(=O)O)cc1"
result_type = "normalized growth"
data_value = 1

[[record]]
compound = "CC(C)=CC1C(C(=O)O)C1(C)C (centres undefined)"
result_type = "normalized growth"
data_value = 0.979

[[record]]
compound = "NNCc1cccc(O)c1"
result_type = "normalized growth"
data_value = 0.989

[[record]]
compound = "OC[C@H]1O[C@@](CO)(O[C@@H]2O[C@H](CO)[C@@H](O)[C@H](O)[C@H]2O)[C@@H](O[C@@H]2O[C@H](CO)[C@@H](O)[C@H](O)[C@H]2O)[C@@H]1O"
result_type = "normalized growth"
data_value = 1.01

[[record]]
compound = "CC(C)=CCc1c2c(c3occ(-c4ccc(O)cc4)c(=O)c3c1O)C=CC(C)(C)O2"
result_type = "normalized growth"
data_value = 0.995

[[record]]
compound = "CC(C)CCCC(C)C1CCC2C3C[C@@H](O)[C@@]4(O)C[C@@H](O)CC[C@]4(C)C3CC[C@]12C (some centres undefined)"
result_type = "normalized growth"
data_value = 1.01


Give the value of normalized growth reported for the following: "O=C(O)c1cccnc1" 0.996

Give the value of normalized growth reported for the following: "CC(=O)Oc1ccc(C(c2ccc(OC(C)=O)cc2)c2ccccn2)cc1" 0.999

Give the value of normalized growth reported for the following: NCC(N)C(=O)c1ccccc1 (centres undefined) 1

====

Listed below: normalized growth values for each entry.
assay: chemical genetic growth profiling, strain panel (AID 1159580);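 further: tested at 20 µM; growth read once vehicle control cultures reached saturation at 30 °C; 1 = growth at the plate median or of vehicle wells; lower values mean less growth of the strain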; details: S. cerevisiae deletion strains, growth OD, locus YLL041C, strain sdh2, stronger effect = lower value
Hit rate of the full screen: of about 5,500 compounds, about 2,000 (36%) were called active. Another 18% or so got no clear call; they are omitted. Some of the results follow.
Answer using only a numeral; do not append any unit.

In the examples that follow, each entry is paired with its recorded normalized growth.
[[record]]
compound = "CN(C)[C@@H]1C(=O)C(C(N)=O)=C(O)[C@@]2(O)C(=O)C3=C(O)c4c(O)ccc(Cl)c4[C@@H](O)[C@H]3C[C@@H]12"
result_type = "normalized growth"
data_value = 0.993

[[record]]
compound = "CS(=O)(=O)Nc1ccc([N+](=O)[O-])cc1Oc1ccccc1"
result_type = "normalized growth"
data_value = 0.995

[[record]]
compound = "CN(C)CCCN1c2ccccc2CCc2ccccc21"
result_type = "normalized growth"
data_value = 1.01

[[record]]
compound = "CN(C)CCCN1c2ccccc2Sc2ccccc21"
result_type = "normalized growth"
data_value = 0.99

[[record]]
compound = "CC(=O)N[C@@H](Cc1c[nH]c2ccccc12)C(N)=O"
result_type = "normalized growth"
data_value = 1.02

[[record]]
compound = "CCCOc1ccc2nc(NC(=O)OC)[nH]c2c1"
result_type = "normalized growth"
data_value = 1.01

[[record]]
compound = "CC(Cc1cccc(C(F)(F)F)c1)NCCOC(=O)c1ccccc1 (configuration not stated)"
result_type = "normalized growth"
data_value = 0.993

[[record]]
compound = "C=C1c2c(Cl)ccc(O)c2C(O)=C2C(=O)[C@]3(O)C(O)=C(C(N)=O)C(=O)[C@@H](N(C)C)[C@@H]3[C@@H](O)[C@H]12"
result_type = "normalized growth"
data_value = 0.985

[[record]]
compound = "CN(C)CCCN1c2ccccc2Sc2ccc(C(F)(F)F)cc21"
result_type = "normalized growth"
data_value = 1.01

[[record]]
compound = "CCCSc1ccc2nc(NC(=O)OC)[nH]c2c1"
result_type = "normalized growth"
data_value = 1


Give the value of normalized growth reported for the following: "CN(C)CCCN1c2ccccc2CCc2ccc(Cl)cc21" 1

Give the value of normalized growth reported for the following: CC12CCC3C(CC3(C)C)C(C)(CCC1=O)O2 (configuration not stated) 0.992

====

Listed below: normalized growth values for each entry.
experiment: chemical genetic growth profiling, strain panel (AID 1159580);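 further: tested at 20 µM; growth read once vehicle control cultures reached saturation at 30 °C; 1 = growth at the plate median or of vehicle wells; lower values mean less growth of the strain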; conditions: S. cerevisiae deletion strains, growth OD, locus YDR334W, strain swr1, stronger effect = lower value
The campaign covered roughly 5,500 compounds. About 2,000 (36%) were called active. About 18% were inconclusive and are not listed. The list shows a part of the results.
Answer using only a numeral; do not append any unit.

[[record]]
molecule = "OC[C@H]1O[C@@H](O[C@@H]2[C@@H](CO)O[C@](O)(CO)[C@H]2O)[C@H](O)[C@@H](O)[C@H]1O"
data_value = 1.01

[[record]]
molecule = "CN(C)[C@@H]1C(=O)C(C(=O)NCN2CCCC2)=C(O)[C@@]2(O)C(=O)C3=C(O)c4c(O)cccc4[C@@](C)(O)[C@H]3C[C@@H]12"
data_value = 0.994

[[record]]
molecule = "CN1CCN(C(=O)OC2c3nccnc3C(=O)N2c2ccc(Cl)cn2)CC1 (stereo unspecified)"
data_value = 0.983

[[record]]
molecule = "COc1cc(C(C)=O)cc(OC)c1O"
data_value = 1.02

[[record]]
molecule = "CCC(C)[C@H]1O[C@]2(C=C[C@@H]1C)C[C@@H]1C[C@@H](C/C=C(\\C)[C@@H](OC3C[C@H](OC)C(O[C@H]4C[C@H](OC)[C@@H](O)[C@H](C)O4)[C@H](C)O3)[C@@H](C)/C=C/C=C3\\CO[C@@H]4[C@H](O)C(C)=C[C@@H](C(=O)O1)[C@]34O)O2 (stereo partly specified)"
data_value = 0.982


Give the value of normalized growth reported for the following: "Cc1cn[nH]c1" 1.03

Give the value of normalized growth reported for the following: O=P1(N(CCCl)CCCl)NCCCO1 (stereo unspecified) 0.994

Give the value of normalized growth reported for the following: CC(C)NCC(O)COc1ccc(COCCOC(C)C)cc1 (stereo unspecified) 1

Give the value of normalized growth reported for the following: "COC(=O)c1c(OC)cc2c(c1C)Oc1c(Cl)c(O)c(Cl)c(C)c1C(=O)O2" 1.01

Give the value of normalized growth reported for the following: "CC[N+](C)(C)c1cccc(O)c1" 1.01

Give the value of normalized growth reported for the following: "CN[C@@H]1[C@H](O)[C@H](NC)[C@H]2O[C@@]3(O)C(=O)C[C@@H](C)O[C@H]3O[C@@H]2[C@H]1O" 1

Give the value of normalized growth reported for the following: CC(=O)O[C@@H]1C=C[C@@]2(C)C(C[C@@H](OC(C)=O)[C@@]3(C)C4=CC(=O)O[C@@H](c5ccoc5)[C@]4(C)CCC23)C1(C)C (stereo partly specified) 0.988

Give the value of normalized growth reported for the following: CC(C)c1ccc2c(c1)CCC1[C@](C)(CN)CCC[C@]21C (stereo partly specified) 1.01

Give the value of normalized growth reported for the following: "C/C1=C/CC(C)(C)/C=C/C/C(C)=C/CC1" 0.981

Give the value of normalized growth reported for the following: "COC(=O)/C(=C1\OC(=O)C(c2ccccc2)=C1O)c1ccccc1" 0.971

Give the value of normalized growth reported for the following: CCC(C)C(=O)OC1[C@@H]2CC3=C4CC(=O)O[C@@H](c5ccoc5)[C@]4(C)CCC3[C@@](C)(C2=O)[C@@H](CC(=O)OC)C1(C)C (stereo partly specified) 1

Give the value of normalized growth reported for the following: "CN(C)CCCN1c2ccccc2Sc2ccc(Cl)cc21" 0.0746

====

experiment: chemical genetic growth profiling, strain panel (AID 1159580);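 further: tested at 20 µM; growth read once vehicle control cultures reached saturation at 30 °C; 1 = growth at the plate median or of vehicle wells; lower values mean less growth of the strain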; settings: S. cerevisiae deletion strains, growth OD, locus YNL153C, strain GIM3, stronger effect = lower value
In all, about 5,500 compounds went through this assay and about 2,000 (36%) were called active. Roughly 18% stayed inconclusive and do not appear here. The list shows a part of the results.
result-type: normalized growth
Answer using only a numeral; do not append any unit.

[[record]]
compound = "CC(=O)OC1CCC2(C)C(CC(OC(C)=O)C3(C)C4=CC(=O)OC(c5ccoc5)C4(C)CCC23)C1(C)C (stereo unspecified)"
result_type = "normalized growth"
data_value = 0.989

[[record]]
compound = "Nc1ncnc2c1ncn2C1CCCO1 (stereo unspecified)"
result_type = "normalized growth"
data_value = 0.989

[[record]]
compound = "CCN1CCCC1CNC(=O)c1cc(S(N)(=O)=O)ccc1OC (stereo unspecified)"
result_type = "normalized growth"
data_value = 1.02


Give the value of normalized growth reported for the following: COc1ccccc1OCC(O)CO (stereo unspecified) 1.01

Give the value of normalized growth reported for the following: "CN(C)c1ccc(O)c2c1C[C@H]1C[C@H]3[C@H](N(C)C)C(=O)C(C(N)=O)=C(O)[C@@]3(O)C(=O)C1=C2O" 0.985

Give the value of normalized growth reported for the following: "Cc1cn[nH]c1" 1.02
